Catalogue of inhibition readings, one per entry.
# assayed-target: Serine/threonine-protein kinase D3 (Homo sapiens);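 also: values are mean inhibition figures against PRKD3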
# Sequence (whole entry): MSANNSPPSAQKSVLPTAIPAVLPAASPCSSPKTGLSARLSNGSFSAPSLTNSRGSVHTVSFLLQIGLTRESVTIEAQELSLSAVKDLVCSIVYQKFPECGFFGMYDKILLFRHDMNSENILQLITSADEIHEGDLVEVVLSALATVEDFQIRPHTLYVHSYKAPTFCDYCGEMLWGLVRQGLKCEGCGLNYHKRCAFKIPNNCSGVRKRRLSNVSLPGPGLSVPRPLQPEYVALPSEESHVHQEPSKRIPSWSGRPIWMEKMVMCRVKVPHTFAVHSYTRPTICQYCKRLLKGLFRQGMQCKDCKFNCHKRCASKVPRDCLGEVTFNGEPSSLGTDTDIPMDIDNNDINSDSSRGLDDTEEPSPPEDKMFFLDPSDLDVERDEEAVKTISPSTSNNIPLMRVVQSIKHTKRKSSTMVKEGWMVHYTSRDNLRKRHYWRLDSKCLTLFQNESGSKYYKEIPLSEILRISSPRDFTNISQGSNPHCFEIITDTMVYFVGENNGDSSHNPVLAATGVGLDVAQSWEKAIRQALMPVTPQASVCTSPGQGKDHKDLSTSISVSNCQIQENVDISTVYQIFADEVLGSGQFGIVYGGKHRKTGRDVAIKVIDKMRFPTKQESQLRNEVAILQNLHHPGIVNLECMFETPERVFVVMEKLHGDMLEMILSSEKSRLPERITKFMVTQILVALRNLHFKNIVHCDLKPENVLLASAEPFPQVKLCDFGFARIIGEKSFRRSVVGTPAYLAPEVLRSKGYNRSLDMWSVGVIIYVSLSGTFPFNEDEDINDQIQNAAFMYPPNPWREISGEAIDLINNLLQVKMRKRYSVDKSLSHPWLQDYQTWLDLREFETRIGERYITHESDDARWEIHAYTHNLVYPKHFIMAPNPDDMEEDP
# cond: at 1 µM
Kindly provide the numeric value in % only, without the unit symbol.

CCOc1ccc2c(-c3ccnc(Nc4cc(OC)cc(C(F)(F)F)c4)n3)cnn2n1 ... 1.2

Q: Sample CCCNc1cccc(-n2ncc3c(N/N=C/c4ccncc4)ncnc32)c1 — what was its inhibition?
Result: 0.02

Q: What do you get for COc1ccc2ncn(-c3cc(O[C@H](C)c4ccccc4C(F)(F)F)c(C(N)=O)s3)c2c1 ?
Result: 0.07

Q: What do you get for Fc1ccc(Nc2nccc(-c3c(-c4ccc(C(F)(F)F)cc4)nn4ncccc34)n2)cc1F ?
Result: 4.35

Q: What do you get for c1cnn2ncc(-c3ccnc(NCCCN4CCOCC4)n3)c2c1 ?
Result: 5

Q: What do you get for CS(=O)(=O)CCNCc1ccoc1-c1ccc2ncnc(Nc3ccc(OCc4ccccc4)cc3)c2c1 ?
Result: 1.39

Q: What do you get for COc1cccc(-n2ncc3c(N/N=C/c4ccc(C(=O)NCCN(C)C)cc4)ncnc32)c1 ?
Result: 4.71

----------
# assayed-target: Glycogen synthase kinase-3 beta (Homo sapiens);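 also: reported values are mean percent inhibition of GSK3B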
# cond: at 1 µM
Param threshold (8%) applies to inhibition; output 1 (yes) when value >= threshold, 0 (no) when value < threshold.

Q: Kindly determine if inhibition recorded for CS(=O)(=O)CCNCc1ccoc1-c1ccc2ncnc(Nc3ccc(OCc4ccccc4)cc3)c2c1 is above or exactly 8%.
Result: 0 (no)

Q: What do you get for O=C(Nc1n[nH]c2nnc(-c3cccnc3)cc12)C1CC1 ?
Result: 1 (yes)

Q: What do you get for CCn1c(-c2nonc2N)nc2cncc(C(=O)NCCNC)c21 ?
Result: 1 (yes)

Q: What do you get for O=C(O[C@H]1CN[C@H](C#Cc2cc3ncnc(Nc4ccc5c(ccn5Cc5cc(F)ccc5F)c4)c3s2)C1)N1CCOCC1 ?
Result: 0 (no)

Q: What do you get for CNC(=O)c1ncccc1Nc1nc(Nc2cc3c(cc2OC)CCCN3C(=O)CN(C)C)nc2[nH]ccc12 ?
Result: 1 (yes)

Q: What do you get for Fc1ccc(Nc2nccc(-c3c(-c4ccc(C(F)(F)F)cc4)nn4ncccc34)n2)cc1F ?
Result: 0 (no)

Q: What do you get for COc1ccccc1-c1cc(/C=C2\C(=O)Nc3ncc(Br)cc32)cc(Br)c1O ?
Result: 1 (yes)

----------
# assayed-target: Dual specificity protein kinase TTK (Homo sapiens);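 also: reported figures are mean TTK inhibition at 1 µM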
# cond: at 1 µM
observed-property: inhibition (%)
Kindly provide the numeric value in % only, without the unit symbol.

Sample records with inhibition:
Cc1cc(O)cc(C)c1/C=C/c1cncc(C(N)=O)c1 ... 2.18
O=C(O[C@H]1CN[C@H](C#Cc2cc3ncnc(Nc4ccc5c(cnn5Cc5ccccc5)c4)c3s2)C1)N1CCOCC1 ... 6.25
NS(=O)(=O)c1cccc(N/C=C2\C(=O)Nc3ccccc32)c1 ... 21.3
c1cnn2ncc(-c3ccnc(NCCCN4CCOCC4)n3)c2c1 ... 8.22
CCn1c(-c2nonc2N)nc2cncc(C(=O)NCCNC)c21 ... 10.5
OCCCNc1nccc(-c2c(-c3ccc(F)cc3)nn3cc(C(F)(F)F)ccc23)n1 ... 4.7
CS(=O)(=O)Nc1ccc(-c2cc(-c3ccccc3)cc(C(N)=O)c2N)cc1 ... 3.01
COc1ccc(Nc2ncc(-c3ccccc3)o2)cc1OC ... 1.06

Q: Sample CN1CCC(n2cnc(-c3ccc(F)cc3)c2-c2ccnc(NCCO)n2)CC1 — what was its inhibition?
Result: 2.05

Q: What do you get for Fc1cccc(COc2ccc(Nc3ncncc3C#Cc3ccccc3)cc2Cl)c1 ?
Result: 8.47

Q: What do you get for CCN1CCC(C(=O)Nc2n[nH]c3nnc(-c4cccc(F)c4F)cc23)CC1 ?
Result: 2.28

Q: What do you get for O=C(Nc1n[nH]c2nnc(-c3cccnc3)cc12)C1CC1 ?
Result: 2.14

Q: What do you get for Cn1c(-c2nonc2N)nc2cnccc21 ?
Result: 8.28

Q: What do you get for CCCNc1cccc(-n2ncc3c(N/N=C/c4ccncc4)ncnc32)c1 ?
Result: 15.7

Q: What do you get for COc1cccc(-n2ncc3c(N/N=C/c4ccc(C(=O)NCCN(C)C)cc4)ncnc32)c1 ?
Result: 11.6

Q: What do you get for c1ccc(-c2n[nH]cc2-c2ccnc(-c3ccc(OCCn4ccnc4)cc3)c2)nc1 ?
Result: 10.7

Q: What do you get for CN(c1ccc(NC(=O)NCCN2CCOCC2)cc1)c1ccnc(Nc2ccc(CS(C)(=O)=O)cc2)n1 ?
Result: 7.72

Q: What do you get for NS(=O)(=O)c1ccc(N/N=C2\C(=O)Nc3ccc(C(=O)NCc4ccncc4)cc32)cc1 ?
Result: 69.2

Q: What do you get for CCOc1ccc2c(-c3ccnc(Nc4cc(OC)cc(C(F)(F)F)c4)n3)cnn2n1 ?
Result: 8.93

Q: What do you get for CS(=O)(=O)CCNCc1ccc(-c2ccc3ncnc(Nc4ccc(OCc5ccccc5)cc4)c3c2)o1 ?
Result: 7.19

Q: What do you get for CCS(=O)(=O)c1ccc(OC)c(Nc2ncc(-c3cccc(C(C)=O)c3)o2)c1 ?
Result: 8.55

Q: What do you get for CS(=O)(=O)CCNCc1ccoc1-c1ccc2ncnc(Nc3ccc(OCc4ccccc4)cc3)c2c1 ?
Result: 5.58

Q: What do you get for CS(=O)(=O)CCNCc1ccc(-c2ccc3ncnc(Nc4ccc(OCc5cccc(C(F)(F)F)c5)cc4)c3c2)o1 ?
Result: 8.3

Q: What do you get for CNC(=O)c1ncccc1Nc1nc(Nc2cc3c(cc2OC)CCCN3C(=O)CN(C)C)nc2[nH]ccc12 ?
Result: 35.2

----------
# assayed-target: Angiopoietin-1 receptor (Homo sapiens) (UniProt Q02763);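 also: reported value is the mean TIE2 inhibition from the GSK PKIS dataset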
# Sequence (Q02763 whole entry): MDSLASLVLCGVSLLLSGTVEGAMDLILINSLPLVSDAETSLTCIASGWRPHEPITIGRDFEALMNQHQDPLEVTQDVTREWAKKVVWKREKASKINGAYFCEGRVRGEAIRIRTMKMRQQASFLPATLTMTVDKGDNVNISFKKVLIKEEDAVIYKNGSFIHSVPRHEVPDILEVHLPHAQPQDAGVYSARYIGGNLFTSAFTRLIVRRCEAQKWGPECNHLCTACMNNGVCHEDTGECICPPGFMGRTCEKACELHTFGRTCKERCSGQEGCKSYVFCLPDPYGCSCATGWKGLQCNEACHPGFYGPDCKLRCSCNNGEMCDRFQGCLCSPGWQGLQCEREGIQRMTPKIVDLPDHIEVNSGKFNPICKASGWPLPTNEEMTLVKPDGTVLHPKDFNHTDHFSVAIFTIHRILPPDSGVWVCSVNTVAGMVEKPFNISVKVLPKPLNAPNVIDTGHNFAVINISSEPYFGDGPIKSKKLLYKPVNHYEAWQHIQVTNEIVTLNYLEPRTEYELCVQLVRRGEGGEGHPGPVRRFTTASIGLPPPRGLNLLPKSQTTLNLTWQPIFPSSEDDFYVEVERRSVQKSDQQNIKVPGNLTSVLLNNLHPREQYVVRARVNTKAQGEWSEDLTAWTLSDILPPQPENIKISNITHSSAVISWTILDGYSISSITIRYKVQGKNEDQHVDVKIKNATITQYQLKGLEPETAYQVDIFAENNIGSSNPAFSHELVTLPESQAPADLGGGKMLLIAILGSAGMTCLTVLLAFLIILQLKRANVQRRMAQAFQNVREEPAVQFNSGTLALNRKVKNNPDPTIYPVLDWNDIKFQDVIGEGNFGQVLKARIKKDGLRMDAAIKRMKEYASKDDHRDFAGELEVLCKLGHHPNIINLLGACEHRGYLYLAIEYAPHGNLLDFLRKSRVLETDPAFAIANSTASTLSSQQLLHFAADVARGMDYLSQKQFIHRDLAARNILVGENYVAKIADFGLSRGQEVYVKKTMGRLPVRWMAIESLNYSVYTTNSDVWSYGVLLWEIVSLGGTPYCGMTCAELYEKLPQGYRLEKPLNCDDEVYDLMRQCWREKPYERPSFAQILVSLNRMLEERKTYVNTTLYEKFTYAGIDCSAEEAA
# cond: at 1 µM
Param threshold (5%) applies to inhibition; output t when value >= threshold, f when value < threshold.

Examples with answers:
COC(=O)Nc1nc2cc(Oc3ccc(NC(=O)Nc4ccccc4)cc3)ccc2[nH]1 ... t
CS(=O)(=O)CCNCc1ccc(-c2ccc3ncnc(Nc4ccc(OCc5ccccc5)cc4)c3c2)o1 ... f
O=C(O[C@H]1CN[C@H](C#Cc2cc3ncnc(Nc4ccc(OCc5cccc(F)c5)c(Cl)c4)c3s2)C1)N1CCOCC1 ... t
Cc1cc(O)cc(C)c1/C=C/c1cncc(C(N)=O)c1 ... t
NS(=O)(=O)c1ccc(N/N=C2\C(=O)Nc3cccc(CCc4ccncc4)c32)cc1 ... f

Q: Kindly determine if inhibition recorded for c1cnn2ncc(-c3ccnc(NCCCN4CCOCC4)n3)c2c1 is above or exactly 5%.
Result: f

Q: What do you get for CS(=O)(=O)CCNCc1ccc(-c2ccc3ncnc(Nc4ccc(OCc5cccc(C(F)(F)F)c5)cc4)c3c2)o1 ?
Result: f

Q: What do you get for CCCNc1cccc(-n2ncc3c(N/N=C/c4ccncc4)ncnc32)c1 ?
Result: t

Q: What do you get for COc1cccc(Nc2nccc(-c3cnn4ncccc34)n2)c1 ?
Result: t

Q: What do you get for Cn1c(-c2nonc2N)nc2cnccc21 ?
Result: f

----------
# assayed-target: G protein-coupled receptor kinase 6 (Homo sapiens) (UniProt P43250);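 also: mean percent inhibition of GRK6, GSK PKIS screen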
# Sequence (P43250 whole entry, looked up): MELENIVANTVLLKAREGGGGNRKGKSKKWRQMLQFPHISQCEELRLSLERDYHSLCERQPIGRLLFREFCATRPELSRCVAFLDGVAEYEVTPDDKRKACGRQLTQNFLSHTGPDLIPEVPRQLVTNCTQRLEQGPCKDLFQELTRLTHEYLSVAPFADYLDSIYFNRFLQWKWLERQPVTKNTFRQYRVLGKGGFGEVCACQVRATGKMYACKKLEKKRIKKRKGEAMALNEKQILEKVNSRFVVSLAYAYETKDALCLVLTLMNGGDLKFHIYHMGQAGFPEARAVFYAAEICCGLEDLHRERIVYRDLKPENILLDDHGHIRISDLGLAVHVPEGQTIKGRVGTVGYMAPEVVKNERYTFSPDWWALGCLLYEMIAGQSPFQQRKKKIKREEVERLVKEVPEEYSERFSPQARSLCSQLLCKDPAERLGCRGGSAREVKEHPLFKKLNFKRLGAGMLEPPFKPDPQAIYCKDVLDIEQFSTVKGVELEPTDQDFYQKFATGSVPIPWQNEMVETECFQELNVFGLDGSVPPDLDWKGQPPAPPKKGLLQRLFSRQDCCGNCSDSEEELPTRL
# cond: at 0.1 µM
Catalogue of inhibition readings, one per entry.
Kindly provide the numeric value in % only, without the unit symbol.

Sample records with inhibition:
Cc1ccc(-c2cc3c(NC(=O)C4CC4)ncnc3o2)cc1 ... 3.77
CC(C)c1ccc(-c2cc(-c3c[nH]nc3-c3ccccn3)ccn2)cc1 ... -1.41
Fc1ccc(Nc2nccc(-c3c(-c4ccc(C(F)(F)F)cc4)nn4ncccc34)n2)cc1F ... 0.33

Then there is this molecule:
Q: Sample COc1cc(N2CCN(C(C)C)CC2)ccc1Nc1nc(Nc2cccc(F)c2C(=O)O)c2cc[nH]c2n1 — what was its inhibition?
Result: 6.59
